Molecular target: hA3AR (Homo sapiens, UniProt P0DMS8)
Construct: expressed in transfected cells; host or cells: HeLa (HeLa-A3) cell membranes
Sequence (P0DMS8 whole entry): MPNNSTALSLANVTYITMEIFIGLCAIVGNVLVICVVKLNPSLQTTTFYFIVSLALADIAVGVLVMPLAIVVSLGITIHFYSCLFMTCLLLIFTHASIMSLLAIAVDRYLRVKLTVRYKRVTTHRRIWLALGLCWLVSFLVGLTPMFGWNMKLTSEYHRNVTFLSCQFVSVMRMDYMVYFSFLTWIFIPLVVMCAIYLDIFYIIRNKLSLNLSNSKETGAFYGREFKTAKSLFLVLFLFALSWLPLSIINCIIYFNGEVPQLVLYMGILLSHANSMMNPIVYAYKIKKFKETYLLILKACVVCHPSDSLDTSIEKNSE
Experiment: Radioligand binding competition, [3H]NECA, membranes from HeLa-A3 cells
Settings: 1 μM, [3H]NECA, human HeLa cells, n = 2
Reported values of % at 1 μM hA3 (percentage displacement of specific binding) for individual entries
# answer = value followed by unit

These recorded examples may help you get a feel for the data.
>>> measured_value("CC1=C(C(=O)OC(C)C)C(c2ccoc2)n2c(nc3ccc(Cl)cc32)N1 (centres unmarked) [15l]")
"3%"
>>> measured_value("CC1=C(C(=O)OC(C)C)C(c2ccsc2)n2c(nc3cc(F)ccc32)N1 (centres unmarked) [16h]")
"5%"
>>> measured_value("CCOC(=O)C1=C(C)Nc2nc3cc(F)ccc3n2C1c1cccs1 (centres unmarked) [16e]")
"3%"
>>> measured_value("CCOC(=O)C1=C(C)Nc2nc3cc(Cl)c(Cl)cc3n2C1c1ccoc1 (centres unmarked) [14k]")
"6%"

Moving on to the next compound.
In: Consider the compound shown here: CCOC(=O)C1=C(C)Nc2nc3cc(Cl)c(Cl)cc3n2C1c1ccco1 (centres unmarked) [14i] What is its recorded % at 1 μM hA3 (percentage displacement of specific binding)?
Out: 1%
